Listed here: items and their measured MFI.
- target-entity: T1, IL-12 (Human IL12 (His Tag)), Sino Biological Cat. No. CT-050-H08H-20 (human, UniProt P29460 23-328; P29459 23-219)
- T1 construct: Bought His-tagged p35/p40 heterodimer
- T1 sequence (looked up) 1: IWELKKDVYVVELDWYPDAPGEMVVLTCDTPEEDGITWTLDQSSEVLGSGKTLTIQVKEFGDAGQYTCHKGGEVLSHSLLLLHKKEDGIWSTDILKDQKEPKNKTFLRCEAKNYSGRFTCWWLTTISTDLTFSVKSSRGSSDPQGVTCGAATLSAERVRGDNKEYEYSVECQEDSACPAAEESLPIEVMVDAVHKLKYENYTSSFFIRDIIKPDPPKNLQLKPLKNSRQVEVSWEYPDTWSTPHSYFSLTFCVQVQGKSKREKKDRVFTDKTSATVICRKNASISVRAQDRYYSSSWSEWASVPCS
- T1 sequence (looked up) 2: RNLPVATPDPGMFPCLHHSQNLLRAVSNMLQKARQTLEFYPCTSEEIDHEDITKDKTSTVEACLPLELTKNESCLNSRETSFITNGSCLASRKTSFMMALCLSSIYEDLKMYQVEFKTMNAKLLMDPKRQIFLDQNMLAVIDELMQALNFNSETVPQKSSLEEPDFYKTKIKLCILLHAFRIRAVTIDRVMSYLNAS
- protocol-description: FACS competition, IL-12-His 20 nM on 293T-IL-12RB1&IL-23R cells, antibody 0.37 µg/mL
// no unit, no text: just the number

{"binder": "H5L10 (antibody, human IgG1, kappa, V domains shown, IgG1/kappa) VH: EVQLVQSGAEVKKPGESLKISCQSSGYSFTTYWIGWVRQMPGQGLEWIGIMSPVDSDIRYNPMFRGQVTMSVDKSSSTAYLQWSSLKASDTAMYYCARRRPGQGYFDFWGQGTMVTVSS VL: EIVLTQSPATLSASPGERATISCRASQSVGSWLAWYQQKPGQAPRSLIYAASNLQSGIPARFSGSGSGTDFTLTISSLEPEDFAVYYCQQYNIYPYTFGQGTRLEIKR", "metric-name": "MFI", "meas-value": 87.5}
{"binder": "ustekinumab (trade name Stelara) (antibody, V domains shown) VH: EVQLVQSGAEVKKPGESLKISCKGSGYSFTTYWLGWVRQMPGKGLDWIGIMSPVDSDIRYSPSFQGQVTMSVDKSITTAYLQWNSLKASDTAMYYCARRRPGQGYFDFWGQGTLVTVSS VL: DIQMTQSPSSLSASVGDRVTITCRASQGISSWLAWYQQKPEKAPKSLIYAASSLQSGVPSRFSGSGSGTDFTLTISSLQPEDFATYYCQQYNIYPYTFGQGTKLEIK", "metric-name": "MFI", "meas-value": 95.7}

Next:
Data request: Recorded MFI of H5L14 (antibody, human IgG1, kappa, V domains shown, IgG1/kappa) VH: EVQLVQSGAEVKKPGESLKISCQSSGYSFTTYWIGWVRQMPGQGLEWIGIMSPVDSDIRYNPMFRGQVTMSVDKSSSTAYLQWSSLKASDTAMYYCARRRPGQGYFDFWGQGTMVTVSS VL: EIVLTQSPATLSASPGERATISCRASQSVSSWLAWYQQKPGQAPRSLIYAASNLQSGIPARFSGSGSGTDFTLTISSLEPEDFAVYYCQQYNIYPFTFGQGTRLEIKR , please.
Data returned: 113
